Experiment: NCI Yeast Anticancer Drug Screen. Data for the wt2 strain (AID 169)
Conditions: S. cerevisiae wt2 strain growth inhibition; at 1.2 µM
This is part of a sample that, as a whole, favours compounds with a hit. Of some 79,000 tested, about 15% had one in any assay. The source made the active and inactive calls. No stated cut-off is given here; in the data, active means growth inhibition above about 70%; inactive means the rest.
Labels: active, inactive

compound	assigned category
O=C1C(Nc2ccccc2)=C(Oc2ccccc2)C(=O)c2ccccc21	inactive
CCCCCCc1cc(C(=O)OC/C(C)=N/NC(N)=O)c2ccccc2n1	inactive
Cc1ccc(N)c(S)c1	inactive
Nc1nc(Cl)c(Cl)c(Cl)n1	inactive
O=C(CCCN1CCC(O)(c2ccc(Cl)cc2)CC1)c1ccc(F)cc1	inactive
CCCCCCCC1(N=[N+]=[N-])C(=O)c2ccccc2N(C)C1=O (centres undefined)	inactive
NC(=NCc1ccccc1)N/N=C\c1ccnc2ccccc12	inactive
Cc1cc(N=Nc2ccc(S(=O)(=O)[O-])cc2)cc(C(=O)[O-])c1[O-].NC1CCCCC1N.[Na+].[Pt+4]	inactive
CC(CC(C)(C)[N+](C)(C)C)[N+](C)(C)C (centres undefined)	inactive
COc1ccc(/C=C2\SC(=S)N(/C=C/c3nc4ccccc4[nH]c3=O)C2=O)cc1OC	inactive
CCCCCCCCCCCCCCCCCCNC	inactive
O=C(O)CNc1ccc(Cl)c(Cl)c1	inactive
Cc1c(Cl)ccc2c1S(=O)(=O)c1cccc(Cl)c1-2	inactive
C=CC(C)(O)CCC1C(=C)C(O)CC2C(C)(C)CCCC12C (centres undefined)	inactive
CCCCCCCCCCCCCCCCCCOCC(O)COP(=O)(O)OCC1OC(n2cc(F)c(=O)[nH]c2=O)CC1O (centres undefined)	inactive
CC(C)C1=CCC2C(=C1)CCC1C(C)(C(=O)O)CCCC21C (centres undefined) (tested in a mixture with another compound)	inactive
O=[N+]([O-])c1cccc2nc3ccccc3c(NCCCN3CCOCC3)c12	inactive
O=C(O)c1cccc(-c2c3ccc(=O)cc-3oc3cc(O)ccc23)c1	inactive
CSC(=S)Nc1cccc(C)n1	inactive
CCCCCCCCCCCCCCC(C(=O)[O-])[n+]1ccccc1 (centres undefined)	inactive
CN1CCc2ccccc2C1Cc1ccccc1NC(=O)c1sc2ccccc2c1Cl (centres undefined)	inactive
O=C1C2CC[C@@H]3C(=O)C(Cl)(Cl)[C@@H]3CCC2C1(Cl)Cl (some centres undefined)	inactive
Oc1c(Br)cc(Br)cc1C1CCCCC1	inactive
COc1ccc(NC(=S)N/N=C(\c2ccccc2)c2ccccn2)cc1	inactive
N#CN1C2CCC1CC(=O)C2	inactive
CC(=O)N/N=C/C(C)(C)C(C)(C)/C=N/NC(C)=O	inactive
CC(C)c1cc(C(C)C)c(O)c(C([O-])[O-])c1.CC(C)c1cc(C(C)C)c(O)c(C([O-])[O-])c1.CC(C)c1cc(C(C)C)c(O)c(C([OH2+])[OH2+])c1.CC(C)c1cc(C(C)C)c(O)c(C([OH2+])[OH2+])c1.[Cu+2].[Cu+2].[OH3+].[OH3+]	inactive
N#C/C(=C\c1cccc(OCc2ccccc2)c1)c1ccc([N+](=O)[O-])cc1	inactive
CC[C@@]1(O)C(=O)OCc2c1cc1n(c2=O)Cc2cc3c(CN(C)C)c(O)ccc3nc2-1	inactive
CC(=O)Cc1ccc[cH-]1.[Fe+2].c1cc[cH-]c1	inactive
CC[n+]1ccc2c(C)c3[nH]c4ccc(O)cc4c3c(C)c2c1	inactive
O=C(Nc1ccc(Cl)cc1)OCC#CCCl	active
Cc1ccc(NN(NC(=O)OC(C)C)C(=O)OC(C)C)cc1	inactive
O=C(O)c1ccccc1NC(=S)c1ccccc1	inactive
N/C(=N\OC(=O)NC(Cl)=C(Cl)Cl)c1cc(C(F)(F)F)cc(C(F)(F)F)c1	inactive
O=C(NCCCNCCCNC(=O)c1cc(-c2ccccc2)nc2ccccc12)c1cc(-c2ccccc2)nc2ccccc12	inactive
CC(=O)[O][Bi]([c]1ccccc1)[c]1ccccc1	inactive
CC(=O)ON1C(=O)c2cccc3cccc(c23)C1=O	inactive
CC(/C=C/c1ccc(Cl)cc1)=N\NC(=S)NCC(C)C	inactive
O=[n+]1c2ccc(Cl)cc2n([O-])c2ccc(Cl)cc21	inactive
CC(/C=C/c1ccc2c(c1)OCO2)[N+](=O)[O-] (centres undefined)	inactive
Cc1[nH]c2ccccc2c1C(c1ccc(N)cc1)c1c(C)[nH]c2ccccc12	inactive
c1ccc2c(c1)NC(NC1Nc3ccccc3N1)N2	inactive
Nc1ccn(C2OC(CO)C3[O][Sn]([c]4ccccc4)([c]4ccccc4)[O]C32)c(=O)n1 (centres undefined)	inactive
